Exercise: for every item that follows, state its recorded pIC50.
# assayed_system: human TPH1 (Homo sapiens (Human))
# Sequence (P17752 whole entry): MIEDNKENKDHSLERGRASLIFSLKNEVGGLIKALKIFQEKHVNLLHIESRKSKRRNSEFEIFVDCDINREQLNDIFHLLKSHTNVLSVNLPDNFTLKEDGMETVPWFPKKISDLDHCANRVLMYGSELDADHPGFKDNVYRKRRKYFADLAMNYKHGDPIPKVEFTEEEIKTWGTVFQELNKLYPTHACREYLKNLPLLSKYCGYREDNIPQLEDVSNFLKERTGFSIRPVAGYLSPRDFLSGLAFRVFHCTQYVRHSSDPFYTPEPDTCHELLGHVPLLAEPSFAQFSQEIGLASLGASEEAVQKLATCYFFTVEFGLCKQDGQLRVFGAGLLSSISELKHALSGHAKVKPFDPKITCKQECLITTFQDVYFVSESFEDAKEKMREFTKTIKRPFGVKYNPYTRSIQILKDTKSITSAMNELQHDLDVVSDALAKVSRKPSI
# assay_text: Biochemical in vitro assay using fluorescence readout (TPH1 inhibition)
# study_conditions: full length human TPH1, 40 μM L-tryptophan, 15° C., 60 minutes, fluorescence at 540 nm; mean if determined several times
Numbers only, as −log10 of the molar value.

Answered examples (6):
compound | pIC50
Cc1nn2c3c(nc2s1)CCN(C(=O)COc1ccc(N2CCOCC2)nc1Cl)C3c1cc(C(=O)O)cs1 (stereo not shown) [Example 1.46.1] | 7.74
Cc1nn2c3c(nc2s1)CCN(C(=O)COc1ccc(N2C(C)CCC2C)nc1Cl)C3c1ccc(Cl)cc1F (stereo not shown) [Example 1.4.15] | 8.22
Cc1nn2c3c(nc2s1)CCN(C(=O)COc1ccc(C(=O)N(C)C)nc1Cl)C3c1ccc(C(=O)N(C)C)o1 (stereo not shown) [Example 1.40.1] | 7.05
Cc1nn2c3c(nc2s1)CCN(C(=O)COc1ccc(N2CCOCC2)nc1Cl)C3c1nc(C(=O)O)cs1 (stereo not shown) [Example 1.41.1] | 7.19
Cc1nn2c3c(nc2s1)CCN(C(=O)COc1ccc(C(=O)N(C)C)nc1Cl)C3c1cnc(N(C)C)s1 (stereo not shown) [Example 1.22.9] | 8.05
Cc1nn2c3c(nc2s1)CCN(C(=O)COc1ccc(N2CCC(F)(F)C2)nc1Cl)C3c1ccc(Cl)cc1F (stereo not shown) [Example 1.4.37] | 8.52

Then this compound:
The value of pIC50 recorded for Cc1nn2c3c(nc2s1)CCN(C(=O)COc1ccc(N2CCOCC2)nc1Cl)C3c1csc(C(=O)O)c1 (stereo not shown) [Example 1.38.1] when tested on human TPH1 (Homo sapiens (Human)) reads 6.95
